Sequence of the target: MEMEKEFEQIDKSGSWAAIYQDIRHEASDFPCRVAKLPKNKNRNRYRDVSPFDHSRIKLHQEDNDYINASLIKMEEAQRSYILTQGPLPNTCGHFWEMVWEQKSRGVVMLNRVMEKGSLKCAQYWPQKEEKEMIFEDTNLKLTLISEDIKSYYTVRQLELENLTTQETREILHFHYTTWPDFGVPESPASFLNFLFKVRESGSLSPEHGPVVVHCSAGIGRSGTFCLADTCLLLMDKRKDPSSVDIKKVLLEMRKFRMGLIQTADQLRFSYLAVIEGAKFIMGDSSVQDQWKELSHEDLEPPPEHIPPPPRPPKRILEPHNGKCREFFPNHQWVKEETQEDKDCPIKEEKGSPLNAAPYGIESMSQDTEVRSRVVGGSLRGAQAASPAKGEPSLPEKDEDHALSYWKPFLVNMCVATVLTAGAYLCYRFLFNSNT
Readout Label: Ki (µM)

Below are worked cases with known answers.
# Compound, Ki / µM
measured = [
    ("COC(=O)c1c(O)cccc1OCCCCNC(=O)[C@H](Cc1ccc(OC(C(N)=O)C(=O)O)cc1)NC(=O)OC(C)(C)C (some centres not stated)", 13.8),
    ("CCc1cc(C[C@H](NC(C)=O)C(=O)NCc2ccc(Cl)cc2)ccc1N(C(=O)C(=O)O)c1ccccc1C(=O)O", 1.2),
    ("CC(=O)C(=O)N(c1ccccc1CCO)c1ccccc1C(=O)O", 17),
    ("CC(=O)C(=O)N(c1ccccc1C(=O)O)c1cccc2ccccc12", 24),
    ("CC(=O)C(=O)N(c1ccccc1Cc1ccccc1)c1ccccc1C(=O)O", 24),
]

(a) CC(=O)C(=O)N(c1ccccc1C(=O)O)c1cccc2ccc(O)cc12
(b) CC(=O)C(=O)N(c1ccccc1/C=C/C(N)=O)c1ccccc1C(=O)O
*Q* // select label with min value of measured Ki from [ a , b ] Your answer should be the label attached to the chosen record.
*A* b
(b: 11 µM, a: 17 µM)
